# Tested on: OV90
# Experimental Protocol: Primary qHTS to identify gynecologic anti-cancer compounds using libraries of approved drugs and bioactive compounds (AID 1345084); note: % is set by controls: 0 for no effect and ±100 for the full control effect; nearly all actives have a fitted effect of over 55% in size
# Experimental Parameters: Gynecologic cancer cell panel viability, ATPlite luminescence, 48 h; series mostly up to 57.5 µM
Records with an inconclusive call do not appear. Active and inactive are the calls of the source. Calls come from the whole dose curve; as a rule, active = well fitted cell-killing curve with a large enough effect; inconclusive = small, poorly fitted or top-dose-only effect, or effect the other way; inactive = flat fitted curve, though single readings scatter.
Experimental Endpoint: activity change, negative = cytotoxicity

{"Compound": "CC(/C=C/C=C(\\C)C(=O)O[C@@H]1O[C@H](CO[C@@H]2O[C@H](CO)[C@@H](O)[C@H](O)[C@H]2O)[C@@H](O)[C@H](O)[C@H]1O)=C\\C=C\\C=C(C)\\C=C\\C=C(/C)C(=O)O[C@@H]1C[C@](O)(C(=O)O)C[C@@H](O)[C@H]1OC(=O)/C=C/c1ccc(O)c(O)c1", "Assayed Target": "OV90", "activity change, negative = cytotoxicity": "8.2% [at 11.6 µM] (inactive)"}
{"Compound": "COc1c(O)cc2c(c1O)C(=O)O[C@H](C)[C@H]2O", "Assayed Target": "OV90", "activity change, negative = cytotoxicity": "inactive"}
{"Compound": "C=C1CC2C3(C)C(O)CC(=O)C(C)(C)C3C(O)C(OC(C)=O)C2(C)C2C(=O)OC(C)(C(=O)OC)C(=O)C12C (configuration not stated)", "Assayed Target": "OV90", "activity change, negative = cytotoxicity": "inactive"}
{"Compound": "CC1(C)OC(=O)CC(O)C2(C)C1CC(=O)C1(C)C2C(O)CC2(C)C(c3ccoc3)OC(=O)C3OC321 (configuration not stated)", "Assayed Target": "OV90", "activity change, negative = cytotoxicity": "inactive"}
{"Compound": "CC1=COC(OC2OC(CO)C(O)C(O)C2O)C2C(CO)CC(OC(=O)/C=C/c3ccc(O)cc3)C12 (configuration not stated)", "Assayed Target": "OV90", "activity change, negative = cytotoxicity": "inactive"}
{"Compound": "COc1cc(/C=C/C(=O)O[C@H]2[C@@H]3C=CO[C@@H](O[C@@H]4O[C@H](CO)[C@@H](O)[C@H](O)[C@H]4O)[C@@H]3[C@@]3(CO)O[C@@H]23)ccc1O", "Assayed Target": "OV90", "activity change, negative = cytotoxicity": "inactive"}
{"Compound": "CCC(C)C(=O)OC[C@H]1O[C@H](O[C@H]2O[C@H](CO)[C@@H](O)[C@H](O)[C@H]2O)[C@H](O)[C@@H](O)[C@@H]1O (some centres not stated)", "Assayed Target": "OV90", "activity change, negative = cytotoxicity": "inactive"}
{"Compound": "COC(=O)C1=CO[C@@H](O[C@@H]2O[C@H](CO)[C@@H](O)[C@H](O)[C@H]2O)[C@@H]2[C@@H](C)[C@@H](O)C(O)[C@H]12 (some centres not stated)", "Assayed Target": "OV90", "activity change, negative = cytotoxicity": "inactive"}

Dear colleague, please send me the reported activity change, negative = cytotoxicity for CC(=O)OCC1OC(OC2COC(OC3COC(OC4C(OC5C(CO)OC(OC6CCC7(C)C(CCC8(C)C7CC=C7C9CC(C)(C)CCC9(C(=O)OC9OC(CO)C(O)C(O)C9OC9OCC(OC%10OCC(O)(CO)C%10O)C(O)C9O)C(O)CC78C)C6(C)C)C(O)C5O)OCC(O)C4O)C(O)C3O)C(O)C2O)C(OC(=O)/C=C/c2ccccc2)C(O)C1OC(C)=O (configuration not stated) when you can.
-0.455% [at 6.55 µM] (inactive)

Tell me activity change, negative = cytotoxicity reported for C=CC(C)(CC/C=C(\C)C(=O)OC[C@H]1O[C@@H](OC(C)(C=C)CC/C=C(\C)C(=O)O[C@H]2[C@H](O)[C@@H](O)[C@H](OC(C)(C=C)CC/C=C(\C)C(=O)O)O[C@@H]2CO)[C@H](O)[C@@H](O)[C@@H]1O)O[C@@H]1O[C@H](CO)[C@@H](O)[C@H](O)[C@H]1O (some centres not stated)
2.45% [at 11.6 µM] (inactive)

Indicate the recorded activity change, negative = cytotoxicity value for this compound: "CCC(=O)N1CCc2cc(OC)c(O)cc2C1"
inactive

Return reported activity change, negative = cytotoxicity. Input compound: C=C1C2CCC3CC2(CC(O)C2(O)C1CC(OC1OC(CO)C(O)C(O)C1O)C2(C)C)CC3(C)O (configuration not stated)
inactive

----------
# Test system: Tov112D
# Experimental Protocol: Primary qHTS to identify gynecologic anti-cancer compounds using libraries of approved drugs and bioactive compounds (AID 1345084); note: % is set by controls: 0 for no effect and ±100 for the full control effect; nearly all actives have a fitted effect of over 55% in size
# Experimental Parameters: Gynecologic cancer cell panel viability, ATPlite luminescence, 48 h; series mostly up to 57.5 µM
Records with an inconclusive call do not appear. Calls of active or inactive are those of the source. Calls come from the whole dose curve; as a rule, active = well fitted cell-killing curve with a large enough effect; inconclusive = small, poorly fitted or top-dose-only effect, or effect the other way; inactive = flat fitted curve, though single readings scatter.

{"Molecule": "CC(C)(O)C1CC=C(C(=O)OC[C@H]2O[C@@H](Oc3cc(C(=O)O)cc(O)c3O)[C@H](O)[C@@H](O)[C@@H]2O)CC1 (stereo partly drawn)", "activity change, negative = cytotoxicity": "inactive"}
{"Molecule": "O=C1C(Cl)=C(N2CCOCC2)C(=O)N1c1ccc(Cl)c(Cl)c1", "activity change, negative = cytotoxicity": "inactive"}
{"Molecule": "CC(C)CC(=O)O[C@@H]1O[C@H](CO)[C@@H](O[C@H]2O[C@H](C)[C@@H](N[C@H]3C=C(CO)[C@@H](O[C@H]4O[C@H](CO)[C@@H](O[C@H]5O[C@H](CO)[C@@H](O[C@H]6O[C@H](CO)[C@@H](O)[C@H](O)[C@H]6O)[C@H](O)[C@H]5O)[C@H](O)[C@H]4O)[C@H](O)[C@H]3O)[C@H](O)[C@H]2O)[C@H](O)[C@H]1O", "activity change, negative = cytotoxicity": "-0.277% [at 11.6 µM] (inactive)"}

----------
# Assayed Target: Cytochrome P450 2D6 (Homo sapiens) (UniProt P10635)
# Sequence (P10635 whole entry, looked up): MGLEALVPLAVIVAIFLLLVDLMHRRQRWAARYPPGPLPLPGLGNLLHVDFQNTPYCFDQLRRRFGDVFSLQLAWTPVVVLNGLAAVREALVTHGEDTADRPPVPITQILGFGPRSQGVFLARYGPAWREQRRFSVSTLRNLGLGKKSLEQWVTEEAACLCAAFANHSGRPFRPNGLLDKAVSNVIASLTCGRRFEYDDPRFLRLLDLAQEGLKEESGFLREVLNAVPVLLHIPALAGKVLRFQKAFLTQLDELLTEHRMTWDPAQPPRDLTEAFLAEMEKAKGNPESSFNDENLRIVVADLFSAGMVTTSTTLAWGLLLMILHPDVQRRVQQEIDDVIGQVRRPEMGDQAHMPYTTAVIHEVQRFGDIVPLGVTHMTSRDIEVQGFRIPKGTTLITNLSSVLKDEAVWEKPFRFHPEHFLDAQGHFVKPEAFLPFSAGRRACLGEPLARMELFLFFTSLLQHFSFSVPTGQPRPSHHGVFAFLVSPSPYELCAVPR
# Experimental Protocol: Cytochrome P450 family 2 subfamily D member 6 (CYP2D6) small molecule antagonists: luciferase biochemical (cell-free) qHTS assay (AID 1645840); note: nearly all actives have a fitted effect of over 55% in size
# Experimental Parameters: P450-Glo CYP2D6 enzyme, luciferin luminescence, 1 h; series mostly up to 57.4 µM
# Description: National Center for Advancing Translational Sciences [NCATS] Assay Overview: Cytochrome P450 (CYP) enzymes are membrane-bound hemeproteins that play a key role in metabolism of drugs and xenobiotics. Assaying the effect of chemicals on CYP isozymes is useful to minimize the adverse drug reactions and toxicities in drug development process. […] The luciferin products formed are detected with a luciferin detection reagent, and the amount of light produced is proportional to CYP activity. […]
Inconclusive results are not listed. Activity calls are given as the source filed them. Calls come from the whole dose curve; as a rule, active = well fitted inhibition curve with a large enough effect in the repeat runs; inconclusive = weak or mixed curves; inactive = flat fitted curve, though single readings scatter.
Bench note: report the call from 1 = active, 0 = inactive

Would you please look over these solved cases?
{"Compound": "CC1(C)Oc2ncnc(N)c2N=C1c1ccc(C2CCC(CC(=O)O)CC2)cc1 (stereo not given)", "Qualitative Label": 0}
{"Compound": "Cc1nnc(-c2ccc3occ(-c4ccc(S(C)=O)cc4)c3c2)o1 (stereo not given)", "Qualitative Label": 0}
{"Compound": "CCOc1ccc(-c2cc(NC(=O)c3c(F)cccc3F)c(C(=O)O)s2)cc1", "Qualitative Label": 1}
{"Compound": "CC(C)[C@@](O)(c1ccc2cc(OC(F)F)c(OC(F)F)cc2c1)c1cn[nH]n1", "Qualitative Label": 1}
{"Compound": "COC(=O)[C@H](Cc1cccc(C(=N)N)c1)[C@@H](C)NC(=O)c1ccc(-c2cc[n+]([O-])cc2)cc1", "Qualitative Label": 0}

Identify the outcome logged in this assay for the compound shown: COc1cc(Nc2nc3c(s2)CCCC3c2ccccc2)ccc1-n1cnc(C)c1 (stereo not given)
1

----------
# Experimental Protocol: Primary qHTS for inhibitors of nuclear receptor binding SET domain protein 2 (NSD2) in an RCH-ACV wild type WT cells (2C) (AID 1645877); note: nearly all actives have a fitted effect of over 70% in size
# Experimental Parameters: RCH-ACV (leukaemia line) NSD2 WT (2C) viability, CellTiter-Glo, 72 h; series mostly up to 44.9 µM
Inconclusive results are not listed. The source made the active and inactive calls. Calls come from the whole dose curve; as a rule, active = well fitted inhibition curve with a large enough effect; inconclusive = small, poorly fitted or top-dose-only effect; inactive = no such curve, though single readings can be large or run the other way.
Experimental Endpoint: outcome

{"Compound": "C[C@@H]1O[C@@H](OC2C(O[C@H]3[C@H](O[C@H]4CC[C@@]5(C)C(CC[C@]6(C)C5CC=C5C7CC(C)(C)CC(O)[C@]7(C)CC[C@]56C)C4(C)C)O[C@H](C(=O)O)[C@@H](O)[C@@H]3O)OC(CO)C(O)C2O)[C@H](O)[C@H](O)[C@H]1O (some centres not stated)", "Experimental Endpoint": "outcome", "Meas Value": "inactive [at 9.23 µM]"}
{"Compound": "C[C@@H]1O[C@@H](O[C@H]2[C@H](O[C@H]3[C@H](O[C@H]4CC[C@@]5(C)C(CC[C@]6(C)C5CC=C5[C@@H]7CC(C)(C)C[C@@H](O)[C@]7(C)CC[C@]56C)[C@@]4(C)CO)O[C@H](C(=O)O)[C@@H](O)[C@@H]3O)O[C@H](CO)[C@H](O)[C@@H]2O)[C@H](O)[C@H](O)[C@H]1O (some centres not stated)", "Experimental Endpoint": "outcome", "Meas Value": "inactive [at 9.23 µM]"}
